Where do the numbers come from? From ChEMBL document CHEMBL1157614.

Target: CYP2C9 (Homo sapiens, UniProt P11712)
Sequence (P11712 whole entry): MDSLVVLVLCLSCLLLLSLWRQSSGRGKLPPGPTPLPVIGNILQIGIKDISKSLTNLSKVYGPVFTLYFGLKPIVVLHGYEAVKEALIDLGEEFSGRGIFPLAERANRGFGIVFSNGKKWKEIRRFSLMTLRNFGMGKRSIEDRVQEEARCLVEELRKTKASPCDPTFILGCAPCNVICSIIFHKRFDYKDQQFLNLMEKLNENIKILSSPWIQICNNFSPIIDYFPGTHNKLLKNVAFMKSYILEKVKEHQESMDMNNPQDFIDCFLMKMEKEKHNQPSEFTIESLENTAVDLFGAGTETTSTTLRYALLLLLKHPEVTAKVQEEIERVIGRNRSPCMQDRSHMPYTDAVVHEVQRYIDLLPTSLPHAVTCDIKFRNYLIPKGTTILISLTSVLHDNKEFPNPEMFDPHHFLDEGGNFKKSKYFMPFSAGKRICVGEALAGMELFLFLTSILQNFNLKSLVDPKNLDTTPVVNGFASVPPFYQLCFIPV
Test: Inhibition of CYP2C9 at 3 uM
Format: ADME
MEASUREMENT_KIND: inhibition at 3 µM (%)

- N[C@@H]1CCN(c2ccc3[nH]nc(S(=O)(=O)c4cccc5ccccc45)c3c2)C1: 73

* * *

Molecular target: hERG (KCNH2) (Homo sapiens, UniProt Q12809)
Sequence (Q12809 whole entry): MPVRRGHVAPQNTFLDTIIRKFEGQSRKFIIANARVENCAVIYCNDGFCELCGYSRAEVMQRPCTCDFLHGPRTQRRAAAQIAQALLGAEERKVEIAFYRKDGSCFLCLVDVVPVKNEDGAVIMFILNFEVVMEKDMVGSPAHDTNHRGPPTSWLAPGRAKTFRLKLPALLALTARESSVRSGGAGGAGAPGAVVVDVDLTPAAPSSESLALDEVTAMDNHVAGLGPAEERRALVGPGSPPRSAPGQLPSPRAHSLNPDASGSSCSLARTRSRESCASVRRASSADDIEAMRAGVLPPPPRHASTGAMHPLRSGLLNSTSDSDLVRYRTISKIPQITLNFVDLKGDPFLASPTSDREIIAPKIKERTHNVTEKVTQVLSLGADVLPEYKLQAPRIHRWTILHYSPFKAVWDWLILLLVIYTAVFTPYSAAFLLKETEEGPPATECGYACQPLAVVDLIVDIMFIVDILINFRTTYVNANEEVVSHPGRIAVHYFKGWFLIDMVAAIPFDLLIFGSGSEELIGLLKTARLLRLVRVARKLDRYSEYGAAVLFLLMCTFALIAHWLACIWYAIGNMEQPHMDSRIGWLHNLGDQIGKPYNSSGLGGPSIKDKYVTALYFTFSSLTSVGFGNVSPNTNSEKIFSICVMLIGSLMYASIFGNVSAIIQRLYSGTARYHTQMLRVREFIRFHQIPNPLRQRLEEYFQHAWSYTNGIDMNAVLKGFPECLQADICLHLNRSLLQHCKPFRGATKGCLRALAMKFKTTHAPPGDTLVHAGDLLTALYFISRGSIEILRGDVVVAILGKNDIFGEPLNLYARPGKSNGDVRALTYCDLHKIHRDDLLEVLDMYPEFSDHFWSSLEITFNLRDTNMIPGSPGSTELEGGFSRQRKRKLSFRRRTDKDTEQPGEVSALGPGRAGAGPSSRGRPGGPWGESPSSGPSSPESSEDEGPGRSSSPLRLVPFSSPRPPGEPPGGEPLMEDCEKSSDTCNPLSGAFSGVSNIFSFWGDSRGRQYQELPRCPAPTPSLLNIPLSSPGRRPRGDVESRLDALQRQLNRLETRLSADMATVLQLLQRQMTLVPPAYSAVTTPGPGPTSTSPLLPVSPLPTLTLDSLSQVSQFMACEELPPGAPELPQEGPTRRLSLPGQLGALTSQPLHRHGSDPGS
Experiment: Inhibition of human ERG at 10 uM
MEASUREMENT_KIND: inhibition at 10 µM

• N[C@@H]1CCN(c2ccc3[nH]nc(S(=O)(=O)c4cccc5ccccc45)c3c2)C1 = 14%

* * *

Target: CYP3A4 (Homo sapiens, UniProt P08684)
Sequence (P08684 whole entry): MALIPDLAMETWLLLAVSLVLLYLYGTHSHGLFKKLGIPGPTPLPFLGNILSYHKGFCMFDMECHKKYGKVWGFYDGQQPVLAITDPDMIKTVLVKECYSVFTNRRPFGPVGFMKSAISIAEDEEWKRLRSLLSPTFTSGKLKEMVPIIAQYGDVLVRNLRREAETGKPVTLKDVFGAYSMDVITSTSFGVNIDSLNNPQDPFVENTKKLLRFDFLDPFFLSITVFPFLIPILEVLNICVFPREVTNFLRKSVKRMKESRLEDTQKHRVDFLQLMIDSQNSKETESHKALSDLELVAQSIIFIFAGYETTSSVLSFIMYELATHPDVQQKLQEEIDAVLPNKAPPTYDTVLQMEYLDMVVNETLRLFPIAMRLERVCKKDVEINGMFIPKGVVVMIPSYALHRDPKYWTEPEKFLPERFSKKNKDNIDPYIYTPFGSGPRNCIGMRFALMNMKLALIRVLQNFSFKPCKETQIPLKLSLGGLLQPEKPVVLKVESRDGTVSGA
Test: Inhibition of CYP3A4 at 3 uM
Assay type: ADME
MEASUREMENT_KIND: inhibition at 3 µM (%)

• N[C@@H]1CCN(c2ccc3[nH]nc(S(=O)(=O)c4cccc5ccccc45)c3c2)C1 = 88
